# experimentalTarget: T1, Avi/His-HuIL18BPa (recombinant human IL-18BP isoform A with Avi and poly-His tags) (human, biotinylated with BirA on the Avi tag in some assays)
# T1 chain: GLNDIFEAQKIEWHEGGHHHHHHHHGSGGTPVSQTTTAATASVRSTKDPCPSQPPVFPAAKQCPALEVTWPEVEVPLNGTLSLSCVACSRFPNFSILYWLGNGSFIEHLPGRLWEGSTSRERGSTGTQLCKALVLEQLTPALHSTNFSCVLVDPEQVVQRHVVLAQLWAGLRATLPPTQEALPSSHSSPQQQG
# method: cell-based or functional assay
We begin with a simple list: items and their reported EC50 of IFNγ release, human PBMCs.
Response body: numeric value in nM, unit text excluded.

binder | quantityUnit | EC50 of IFNγ release, human PBMCs
anti-IL-18BP antibody variant BP-04.32 (antibody, V domains shown) VH: QVQLVQSGAEVKKPGASVKVSCKASGYTFTDYDMHWVRQAPGQGLEWMGIYSTYYGDVSYAQKFQGRVTMTRDKSTSTVYMELSSLRSEDTAVYYCARSGTYYYGTRESHALDYWGQGTLVTVSS VL: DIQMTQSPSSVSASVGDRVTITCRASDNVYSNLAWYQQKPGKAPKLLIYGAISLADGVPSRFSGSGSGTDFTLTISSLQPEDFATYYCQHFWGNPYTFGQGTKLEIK | nM | 0.838
anti-IL-18BP antibody variant BP-04.25 (antibody, V domains shown) VH: QVQLVQSGAEVKKPGASVKVSCKASGYTFTDYDMHWVRQAPGQGLEWMGIYSTYYGDVSYAQKFQGRVTMTRDKSTSTVYMELSSLRSEDTAVYYCARSGTYNYGTRESHALDYWGQGTLVTVSS VL: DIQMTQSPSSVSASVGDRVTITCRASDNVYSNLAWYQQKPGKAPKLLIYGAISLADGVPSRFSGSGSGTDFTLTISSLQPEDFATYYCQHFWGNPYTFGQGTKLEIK | nM | 5.05

Now turn to the next binder.
Problem: Look at this binder and give its reported EC50 of IFNγ release, human PBMCs. anti-IL-18BP antibody variant BP-04.27 (antibody, V domains shown) VH: QVQLVQSGAEVKKPGASVKVSCKASGYTFTDYDMHWVRQAPGQGLEWMGIISTYYGDVSYAQKFQGRVTMTRDKSTSTVYMELSSLRSEDTAVYYCARSGTYYYGTRESHAFDYWGQGTLVTVSS VL: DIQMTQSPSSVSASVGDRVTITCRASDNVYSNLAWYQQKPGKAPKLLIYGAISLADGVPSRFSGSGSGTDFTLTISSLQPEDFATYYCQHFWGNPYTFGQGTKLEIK
Result: 1.28
